Ref: patent US20090298820A1

Entries below carry reported pIC50 on PI3Kγ (Homo sapiens, UniProt P48736).
Sequence (P48736 whole entry, species assumed): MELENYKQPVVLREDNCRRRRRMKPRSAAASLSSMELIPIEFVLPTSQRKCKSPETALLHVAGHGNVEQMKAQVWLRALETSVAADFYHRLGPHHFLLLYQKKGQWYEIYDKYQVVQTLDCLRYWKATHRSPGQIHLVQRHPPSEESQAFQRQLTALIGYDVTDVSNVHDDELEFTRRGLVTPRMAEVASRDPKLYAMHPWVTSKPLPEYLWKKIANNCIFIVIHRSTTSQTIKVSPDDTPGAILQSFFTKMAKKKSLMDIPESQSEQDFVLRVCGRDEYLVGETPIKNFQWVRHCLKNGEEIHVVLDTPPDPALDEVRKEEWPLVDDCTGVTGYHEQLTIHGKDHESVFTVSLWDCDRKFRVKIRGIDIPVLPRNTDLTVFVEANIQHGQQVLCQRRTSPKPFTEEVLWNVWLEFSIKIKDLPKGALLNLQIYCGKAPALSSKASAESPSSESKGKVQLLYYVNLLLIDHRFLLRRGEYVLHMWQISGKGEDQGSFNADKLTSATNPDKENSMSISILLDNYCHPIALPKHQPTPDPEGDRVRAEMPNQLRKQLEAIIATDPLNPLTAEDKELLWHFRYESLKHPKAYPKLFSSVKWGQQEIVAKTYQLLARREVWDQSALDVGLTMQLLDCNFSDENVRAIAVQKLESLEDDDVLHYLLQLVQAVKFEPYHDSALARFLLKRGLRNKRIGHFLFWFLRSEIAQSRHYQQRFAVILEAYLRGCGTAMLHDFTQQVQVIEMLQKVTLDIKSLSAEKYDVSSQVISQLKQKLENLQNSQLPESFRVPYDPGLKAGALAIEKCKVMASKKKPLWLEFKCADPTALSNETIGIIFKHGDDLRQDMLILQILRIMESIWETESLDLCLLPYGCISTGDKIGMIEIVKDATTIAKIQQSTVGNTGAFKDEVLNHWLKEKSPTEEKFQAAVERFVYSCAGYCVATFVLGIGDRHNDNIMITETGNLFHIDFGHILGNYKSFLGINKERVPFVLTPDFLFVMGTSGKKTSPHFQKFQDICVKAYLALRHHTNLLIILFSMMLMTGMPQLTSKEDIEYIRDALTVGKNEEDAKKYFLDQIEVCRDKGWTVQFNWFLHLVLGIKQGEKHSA
pIC50: −log10 of the molar value.
measurementName: pIC50

1. Cn1cc(/C=C2\Oc3ccc(NC(=O)Nc4cccnc4)cc3C2=O)c2c(N3C4CCCC3COC4)ccnc21    5.95
2. Cn1cc(/C=C2\Oc3cc(O)cc(O)c3C2=O)c2c(-c3ccc(Cl)cc3)ccnc21    7.09
3. Cn1cc(/C=C2\Oc3ccc(NC(=O)Nc4cccnc4)cc3C2=O)c2c(N3CCC(C(=O)N4CCCCC4)CC3)ccnc21    6.69
4. Cn1cc(/C=C2\Oc3ccc(Br)cc3C2=O)c2c(N3CC4CCC(C3)O4)ccnc21    6.01
5. CN(C)C(=O)C1CCN(c2ccnc3c2c(/C=C2\Oc4ccc(Br)cc4C2=O)cn3C)CC1    5.93

* * *

# targetEntity: mTOR (Homo sapiens)
# measurementDescription: mTOR enzyme assay (DELFIA format, His6-S6K substrate)
# Type: biochemical
# conditionSet: read-out: mTOR Kinase Median IC50
pIC50: −log10 of the molar value.
compounds and their reported pIC50
measurementName: pIC50

1) CNC(=O)Nc1ccc(-c2ccnc3c2c(/C=C2\Oc4cccc(O)c4C2=O)cn3C)cc1    8.82
2) C#CCN(C)C(=O)C1CCN(c2ccnc3c2c(/C=C2\Oc4ccc(NC(=O)Nc5cccnc5)cc4C2=O)cn3C)CC1    7.65
3) Cn1cc(/C=C2\Oc3cc(O)cc(O)c3C2=O)c2c(-c3cccnc3)ccnc21    9.22
4) Cn1cc(/C=C2\Oc3cc(O)cc(O)c3C2=O)c2c(-c3ccc(N4CCOCC4)cc3)ccnc21    9.70
5) COc1ccc(-c2ccnc3c2c(/C=C2\Oc4cccc(O)c4C2=O)cn3C)cc1S(=O)(=O)N1CCOCC1    8.80
6) Cn1cc(/C=C2\Oc3cc(O)cc(O)c3C2=O)c2c(-c3ccc(OCCn4ccnc4)cc3)ccnc21    8.30
7) CN1CCN(C(=O)C2CCN(c3ccnc4c3c(/C=C3\Oc5cccc(O)c5C3=O)cn4C)CC2)CC1    8.51
8) CN(C)c1cccc(-c2ccnc3c2c(/C=C2\Oc4cc(O)cc(O)c4C2=O)cn3C)c1    9.22
9) CNC(=O)Nc1ccc2c(c1)C(=O)/C(=C/c1cn(C)c3nccc(N4CC5CC4CO5)c13)O2 (stereo not drawn)    7.30
10) Cn1cc(/C=C2\Oc3cc(O)cc(O)c3C2=O)c2c(-c3cccc(C(=O)N4CCCC4)c3)ccnc21    8.85
11) Cn1cc(/C=C2\Oc3ccc(NC(=O)Nc4cccnc4)cc3C2=O)c2c(N3CCC(C(=O)N4CC5CC4CN5)CC3)ccnc21 (stereo not drawn)    7.78
12) CN(C)C(=O)C1CCN(c2ccnc3c2c(/C=C2\Oc4ccc(Br)cc4C2=O)cn3C)CC1    7.94
13) Cn1cc(/C=C2\Oc3cccc(O)c3C2=O)c2c(-c3cccc(C(F)(F)F)c3)ccnc21    7.91
14) CNC(=O)Nc1ccc2c(c1)C(=O)/C(=C/c1cn(C)c3nccc(-c4ccc(C(=O)N5CCN(CCO)CC5)cc4)c13)O2    7.81
15) CN(C)C(=O)C1CCN(c2ccnc3c2c(/C=C2\Oc4ccc(NC(=O)Nc5nc6ccccc6n5C)cc4C2=O)cn3C)CC1    6.82
16) Cn1cc(/C=C2\Oc3cccc(O)c3C2=O)c2c(-c3cccc(OC(F)(F)F)c3)ccnc21    7.08
17) Cn1cc(/C=C2\Oc3cccc(O)c3C2=O)c2c(N3CCC(C(N)=O)CC3)ccnc21    9.15
18) Cn1cc(/C=C2\Oc3ccc(NC(=O)Nc4cccnc4)cc3C2=O)c2c(N3CCOC(C)(C)C3)ccnc21    7.89
19) Cn1cc(/C=C2\Oc3cccc(O)c3C2=O)c2c(N3CCN(C(=O)N4CCCC4)CC3)ccnc21    8.54
20) Cn1cc(/C=C2\Oc3ccc(NC(=O)NCCCCl)cc3C2=O)c2c(N3CC4CCC(C3)O4)ccnc21    6.98
21) Cn1cc(/C=C2\Oc3cccc(O)c3C2=O)c2c(N3CCSCC3)ccnc21    8.72
